src = the supplement of paper PMC5998384

- Test system: HeLa Kyoto
- MEASUREMENT_PROTOCOL: solubility in G1/S (NP-40 vs SDS abundance) (log2 ratio); higher = more soluble
- SETUP_CONDITIONS: cell cycle stage: G1/S
Exercise: for every item that follows, state its recorded solubility in G1/S (log2).
Give a plain numeric answer without units written out.

Consider the sequence MLSAASRVVSRAAVHCALRSPPPEARALAMSRPPPPRVASVLGTMEMGRRMDAPASAAAVRAFLERGHTELDTAFMYSDGQSETILGGLGLGLGGGDCRVKIATKANPWDGKSLKPDSVRSQLETSLKRLQCPQVDLFYLHAPDHGTPVEETLHACQRLHQEGKFVELGLSNYASWEVAEICTLCKSNGWILPTVYQGMYNATTRQVETELFPCLRHFGLRFYAYNPLAGGLLTGKYKYEDKDGKQPVGRFFGNSWAETYRNRFWKEHHFEAIALVEKALQAAYGASAPSVTSAALRWMYHHSQLQGAHGDAVILGMSSLEQLEQNLAATEEGPLEPAVVDAFNQAWHLVAHECPNYFR [AKR7A2] . State its measured solubility in G1/S (log2). 0.438

# return recorded solubility in G1/S (log2) for input MVRKLKFHEQKLLKQVDFLNWEVTDHNLHELRVLRRYRLQRREDYTRYNQLSRAVRELARRLRDLPERDQFRVRASAALLDKLYALGLVPTRGSLELCDFVTASSFCRRRLPTVLLKLRMAQHLQAAVAFVEQGHVRVGPDVVTDPAFLVTRSMEDFVTWVDSSKIKRHVLEYNEERDDFDLEA [IMP3] -2.11

Report measured solubility in G1/S (log2); entry is MAQKENSYPWPYGRQTAPSGLSTLPQRVLRKEPVTPSALVLMSRSNVQPTAAPGQKVMENSSGTPDILTRHFTIDDFEIGRPLGKGKFGNVYLAREKKSHFIVALKVLFKSQIEKEGVEHQLRREIEIQAHLHHPNILRLYNYFYDRRRIYLILEYAPRGELYKELQKSCTFDEQRTATIMEELADALMYCHGKKVIHRDIKPENLLLGLKGELKIADFGWSVHAPSLRRKTMCGTLDYLPPEMIEGRMHNEKVDLWCIGVLCYELLVGNPPFESASHNETYRRIVKVDLKFPASVPMGAQDLISKLLRHNPSERLPLAQVSAHPWVRANSRRVLPPSALQSVA [AURKB] -1.2

###

- System: HeLa Kyoto
- MEASUREMENT_PROTOCOL: thermal stability score vs G1/S (z-score of summed log2 fold changes over temperatures); higher = more thermally stable than in G1/S
- SETUP_CONDITIONS: cell cycle stage: early G1 (4.5 h after nocodazole release)
EXPERIMENTAL_ENDPOINT: thermal stability score
Would you mind answering with just the numeric figure?

Give a short answer stating reported thermal stability score for MPAHLLQDDISSSYTTTTTITAPPSRVLQNGGDKLETMPLYLEDDIRPDIKDDIYDPTYKDKEGPSPKVEYVWRNIILMSLLHLGALYGITLIPTCKFYTWLWGVFYYFVSALGITAGAHRLWSHRSYKARLPLRLFLIIANTMAFQNDVYEWARDHRAHHKFSETHADPHNSRRGFFFSHVGWLLVRKHPAVKEKGSTLDLSDLEAEKLVMFQRRYYKPGLLMMCFILPTLVPWYFWGETFQNSVFVATFLRYAVVLNATWLVNSAAHLFGYRPYDKNISPRENILVSLGAVGEGFHNYHHSFPYDYSASEYRWHINFTTFFIDCMAALGLAYDRKKVSKAAILARIKRTGDGNYKSG [SCD] . 1.76

Indicate the recorded thermal stability score value for this sequence: MAASSISSPWGKHVFKAILMVLVALILLHSALAQSRRDFAPPGQQKREAPVDVLTQIGRSVRGTLDAWIGPETMHLVSESSSQVLWAISSAISVAFFALSGIAAQLLNALGLAGDYLAQGLKLSPGQVQTFLLWGAGALVVYWLLSLLLGLVLALLGRILWGLKLVIFLAGFVALMRSVPDPSTRALLLLALLILYALLSRLTGSRASGAQLEAKVRGLERQVEELRWRQRRAAKGARSVEEE [TMEM109] -3.9
